molecular target: TLK1 (human) (UniProt Q9UKI8); assay: KINOMEscan competition binding; settings: compound 10.0 µM
Sequence (Q9UKI8 whole entry, looked up): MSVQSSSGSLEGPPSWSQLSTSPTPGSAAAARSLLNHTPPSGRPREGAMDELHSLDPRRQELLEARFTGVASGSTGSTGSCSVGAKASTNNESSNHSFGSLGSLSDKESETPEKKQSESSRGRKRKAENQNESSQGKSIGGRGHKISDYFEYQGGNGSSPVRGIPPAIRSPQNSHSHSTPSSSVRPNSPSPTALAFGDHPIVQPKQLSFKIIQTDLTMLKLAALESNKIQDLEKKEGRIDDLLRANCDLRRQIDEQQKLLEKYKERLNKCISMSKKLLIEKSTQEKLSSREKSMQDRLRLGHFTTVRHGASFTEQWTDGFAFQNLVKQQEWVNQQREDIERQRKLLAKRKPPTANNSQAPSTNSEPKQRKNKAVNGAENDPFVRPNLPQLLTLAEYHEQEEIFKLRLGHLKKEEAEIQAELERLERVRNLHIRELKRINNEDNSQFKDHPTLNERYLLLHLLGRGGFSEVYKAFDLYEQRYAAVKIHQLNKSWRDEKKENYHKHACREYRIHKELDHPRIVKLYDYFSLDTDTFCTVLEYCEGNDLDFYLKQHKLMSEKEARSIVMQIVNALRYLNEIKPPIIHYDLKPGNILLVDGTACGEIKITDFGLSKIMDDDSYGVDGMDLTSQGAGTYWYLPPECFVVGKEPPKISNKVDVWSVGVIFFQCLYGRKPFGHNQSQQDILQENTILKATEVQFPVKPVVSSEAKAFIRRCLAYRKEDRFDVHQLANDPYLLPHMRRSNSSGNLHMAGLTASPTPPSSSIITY
assay_readout: kinase still bound, per cent of control

The cases that follow already have their kinase still bound, per cent of control on record.
>>> df
                           substance_smiles                            assay_readout                result
0   CC(=O)c1c(-c2ccncc2)[nH]c(-c2ccncc2)c1C  kinase still bound, per cent of control  no effect (inactive)
1      Nc1ncnc2c1c(-c1cccc(O)c1)cn2C1CCNCC1  kinase still bound, per cent of control  no effect (inactive)
2  CCS(=O)(=O)Nc1ccc2c(c1)[C@H](/C(=N/c1ccc(CN3CCCCC3)cc1)c1ccccc1)C(=O)N2  kinase still bound, per cent of control                 0.75%
3  Cc1ccc(NC(=O)c2cccc(N3CCCCC3)c2)cc1-c1ccc(C(=O)NCC2CC2)cc1  kinase still bound, per cent of control  no effect (inactive)
4    CN(C)c1ccc(-c2cc3ncccc3c(NCCCCN)n2)cc1  kinase still bound, per cent of control  no effect (inactive)

Form field: reported kinase still bound, per cent of control of NC(=O)c1ccc(Nc2cc(-c3ccc(F)cc3)[nH]n2)cc1 no effect (inactive)

* * *

molecular target: UniProtKB Q9Y4K4; experiment: KINOMEscan competition binding; conditions: compound 10.0 µM
Sequence (Q9Y4K4 whole entry, looked up): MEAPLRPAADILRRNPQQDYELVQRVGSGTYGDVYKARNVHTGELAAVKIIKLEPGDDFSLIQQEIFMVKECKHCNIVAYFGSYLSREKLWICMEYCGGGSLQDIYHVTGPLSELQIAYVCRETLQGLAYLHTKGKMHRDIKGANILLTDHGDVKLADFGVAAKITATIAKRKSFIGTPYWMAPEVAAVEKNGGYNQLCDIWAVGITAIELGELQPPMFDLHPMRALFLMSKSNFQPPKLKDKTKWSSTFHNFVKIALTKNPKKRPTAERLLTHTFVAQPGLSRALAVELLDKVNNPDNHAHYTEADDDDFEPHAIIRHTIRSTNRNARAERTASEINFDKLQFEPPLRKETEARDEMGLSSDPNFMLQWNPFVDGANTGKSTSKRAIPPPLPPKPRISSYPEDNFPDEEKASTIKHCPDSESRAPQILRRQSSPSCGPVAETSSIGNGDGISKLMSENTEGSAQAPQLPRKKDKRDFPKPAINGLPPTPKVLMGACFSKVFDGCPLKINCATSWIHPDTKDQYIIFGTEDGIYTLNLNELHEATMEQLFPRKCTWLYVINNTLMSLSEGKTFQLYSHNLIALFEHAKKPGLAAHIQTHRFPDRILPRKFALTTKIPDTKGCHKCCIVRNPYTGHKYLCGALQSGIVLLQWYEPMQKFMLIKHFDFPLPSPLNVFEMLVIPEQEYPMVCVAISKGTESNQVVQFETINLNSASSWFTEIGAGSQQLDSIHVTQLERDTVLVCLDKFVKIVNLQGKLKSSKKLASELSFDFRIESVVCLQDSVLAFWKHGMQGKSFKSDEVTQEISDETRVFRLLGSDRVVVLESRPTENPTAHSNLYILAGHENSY
assay_readout: kinase still bound, per cent of control

The cases that follow already have their kinase still bound, per cent of control on record.
                           substance_smiles               tgt                            assay_readout                result
0  NC(=O)c1ccc(Nc2cc(-c3ccc(F)cc3)[nH]n2)cc1  UniProtKB Q9Y4K4  kinase still bound, per cent of control  no effect (inactive)
1      c1ccc(-c2n[nH]cc2-c2ccnc3ccccc23)nc1  UniProtKB Q9Y4K4  kinase still bound, per cent of control  no effect (inactive)
2  N#Cc1ccc(-c2cnc3[nH]cc(NC(=O)c4cccnc4)c3c2)cc1  UniProtKB Q9Y4K4  kinase still bound, per cent of control  no effect (inactive)
3   CC(=O)c1c(-c2ccncc2)[nH]c(-c2ccncc2)c1C  UniProtKB Q9Y4K4  kinase still bound, per cent of control  no effect (inactive)

I need kinase still bound, per cent of control for every entry listed below, if you could help.
1. O=C(Nc1n[nH]c2nc(-c3cccc(O)c3)ccc12)C1CC1
2. CCS(=O)(=O)Nc1ccc2c(c1)[C@H](/C(=N/c1ccc(CN3CCCCC3)cc1)c1ccccc1)C(=O)N2

["no effect (inactive)", "0%"]

* * *

target: BRSK2 (human)
assay_readout: Kd (nM)
One number for each entry, in nM.

Form field: reported Kd of CCS(=O)(=O)Nc1ccc2c(c1)[C@H](/C(=N/c1ccc(CN3CCCCC3)cc1)c1ccccc1)C(=O)N2 92

* * *

molecular target: PDGFRA (human) (UniProt P16234); assay: KINOMEscan competition binding; details: compound 10.0 µM
Sequence (P16234 whole entry, looked up): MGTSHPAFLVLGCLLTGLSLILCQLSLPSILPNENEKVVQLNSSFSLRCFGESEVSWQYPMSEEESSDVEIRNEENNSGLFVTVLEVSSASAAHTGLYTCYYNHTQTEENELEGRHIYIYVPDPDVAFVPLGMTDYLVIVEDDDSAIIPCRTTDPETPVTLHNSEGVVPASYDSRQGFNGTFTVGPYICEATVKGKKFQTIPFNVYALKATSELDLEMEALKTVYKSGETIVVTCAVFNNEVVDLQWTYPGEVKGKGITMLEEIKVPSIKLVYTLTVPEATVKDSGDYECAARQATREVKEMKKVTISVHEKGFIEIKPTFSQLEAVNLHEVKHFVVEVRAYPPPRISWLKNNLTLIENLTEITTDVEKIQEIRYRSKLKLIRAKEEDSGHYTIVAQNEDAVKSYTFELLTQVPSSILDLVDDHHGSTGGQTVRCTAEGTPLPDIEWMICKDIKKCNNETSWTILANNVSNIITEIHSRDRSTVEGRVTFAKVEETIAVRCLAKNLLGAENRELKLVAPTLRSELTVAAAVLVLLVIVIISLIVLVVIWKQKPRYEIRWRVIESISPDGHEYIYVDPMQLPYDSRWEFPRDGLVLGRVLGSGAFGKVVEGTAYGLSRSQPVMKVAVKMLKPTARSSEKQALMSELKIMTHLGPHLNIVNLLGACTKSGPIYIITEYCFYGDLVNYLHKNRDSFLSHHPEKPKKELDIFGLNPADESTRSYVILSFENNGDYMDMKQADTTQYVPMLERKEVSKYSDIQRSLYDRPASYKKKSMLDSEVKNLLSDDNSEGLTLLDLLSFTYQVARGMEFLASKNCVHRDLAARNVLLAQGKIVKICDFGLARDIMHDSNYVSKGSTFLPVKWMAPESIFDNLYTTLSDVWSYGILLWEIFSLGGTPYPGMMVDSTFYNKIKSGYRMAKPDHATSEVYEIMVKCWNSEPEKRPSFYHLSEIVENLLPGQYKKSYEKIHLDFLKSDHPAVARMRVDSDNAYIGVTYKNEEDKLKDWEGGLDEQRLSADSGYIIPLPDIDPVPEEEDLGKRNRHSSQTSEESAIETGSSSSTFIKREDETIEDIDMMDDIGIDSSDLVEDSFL
assay_readout: kinase still bound, per cent of control

The cases that follow already have their kinase still bound, per cent of control on record.
>>> df
                           substance_smiles                            assay_readout                result
0  CCS(=O)(=O)Nc1ccc2c(c1)[C@H](/C(=N/c1ccc(CN3CCCCC3)cc1)c1ccccc1)C(=O)N2  kinase still bound, per cent of control                  0.8%
1  NC(=O)c1ccc(Nc2cc(-c3ccc(F)cc3)[nH]n2)cc1  kinase still bound, per cent of control                    0%
2  NC(=O)c1ccc(-c2cc(C(N)=O)c(N)c(-c3ccc(S(N)(=O)=O)cc3)c2)cc1  kinase still bound, per cent of control  no effect (inactive)
3      c1ccc(-c2n[nH]cc2-c2ccnc3ccccc23)nc1  kinase still bound, per cent of control  no effect (inactive)
4      Nc1ncnc2c1c(-c1cccc(O)c1)cn2C1CCNCC1  kinase still bound, per cent of control                    0%

// switching to the query compound
Field: kinase still bound, per cent of control (PDGFRA (human) (UniProt P16234)). Entry: CC(=O)c1c(-c2ccncc2)[nH]c(-c2ccncc2)c1C no effect (inactive)
